# targetSystem: Integrin alpha-4/beta-1 (Homo sapiens, UniProt P05556+P13612)
# Sequence (P05556 whole entry): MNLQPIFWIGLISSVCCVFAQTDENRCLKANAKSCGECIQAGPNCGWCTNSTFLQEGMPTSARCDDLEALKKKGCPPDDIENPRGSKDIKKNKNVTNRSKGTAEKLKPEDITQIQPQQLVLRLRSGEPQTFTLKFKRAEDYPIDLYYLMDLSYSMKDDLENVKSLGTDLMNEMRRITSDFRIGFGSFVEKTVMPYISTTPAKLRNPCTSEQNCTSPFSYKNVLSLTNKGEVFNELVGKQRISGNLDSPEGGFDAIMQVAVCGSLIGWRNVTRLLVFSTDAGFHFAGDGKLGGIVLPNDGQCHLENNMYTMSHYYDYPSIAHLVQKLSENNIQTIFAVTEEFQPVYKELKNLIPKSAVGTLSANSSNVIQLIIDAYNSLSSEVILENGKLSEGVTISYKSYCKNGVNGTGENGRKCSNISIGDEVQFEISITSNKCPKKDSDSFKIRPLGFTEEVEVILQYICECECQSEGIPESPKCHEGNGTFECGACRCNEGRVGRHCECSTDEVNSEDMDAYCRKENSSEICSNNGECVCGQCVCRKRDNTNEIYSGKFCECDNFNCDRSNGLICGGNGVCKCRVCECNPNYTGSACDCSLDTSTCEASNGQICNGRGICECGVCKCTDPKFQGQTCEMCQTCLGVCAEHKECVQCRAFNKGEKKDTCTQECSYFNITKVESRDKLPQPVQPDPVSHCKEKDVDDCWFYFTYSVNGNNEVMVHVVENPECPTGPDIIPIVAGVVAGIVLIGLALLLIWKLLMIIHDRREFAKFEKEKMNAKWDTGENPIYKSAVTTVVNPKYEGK
# Sequence (P13612 whole entry): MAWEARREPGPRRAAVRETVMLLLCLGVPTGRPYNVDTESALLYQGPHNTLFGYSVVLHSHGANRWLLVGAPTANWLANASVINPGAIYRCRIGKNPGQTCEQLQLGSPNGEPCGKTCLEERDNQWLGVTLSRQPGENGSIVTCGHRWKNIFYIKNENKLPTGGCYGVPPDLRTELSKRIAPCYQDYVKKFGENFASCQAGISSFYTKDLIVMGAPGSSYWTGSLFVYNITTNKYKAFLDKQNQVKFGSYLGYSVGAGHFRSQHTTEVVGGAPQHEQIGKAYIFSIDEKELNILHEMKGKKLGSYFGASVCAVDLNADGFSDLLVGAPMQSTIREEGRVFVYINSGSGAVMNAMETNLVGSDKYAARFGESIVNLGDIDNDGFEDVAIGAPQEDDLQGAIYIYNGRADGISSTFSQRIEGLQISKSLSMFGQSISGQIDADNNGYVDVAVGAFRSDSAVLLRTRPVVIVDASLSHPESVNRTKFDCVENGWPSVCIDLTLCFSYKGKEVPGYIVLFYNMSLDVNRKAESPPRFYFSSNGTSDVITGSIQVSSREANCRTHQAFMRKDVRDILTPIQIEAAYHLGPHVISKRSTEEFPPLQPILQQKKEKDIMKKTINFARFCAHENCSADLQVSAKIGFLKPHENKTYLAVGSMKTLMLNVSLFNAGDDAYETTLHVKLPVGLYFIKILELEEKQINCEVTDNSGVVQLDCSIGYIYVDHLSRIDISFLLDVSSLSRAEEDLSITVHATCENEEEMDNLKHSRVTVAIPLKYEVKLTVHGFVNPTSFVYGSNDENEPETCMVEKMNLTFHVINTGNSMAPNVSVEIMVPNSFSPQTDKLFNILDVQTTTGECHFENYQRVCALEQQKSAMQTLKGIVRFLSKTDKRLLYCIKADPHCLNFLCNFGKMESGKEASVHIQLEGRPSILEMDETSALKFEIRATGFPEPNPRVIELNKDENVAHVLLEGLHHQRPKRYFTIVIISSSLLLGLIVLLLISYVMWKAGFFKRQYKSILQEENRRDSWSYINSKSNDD
# testName: Inhibition of fibronectin binding to […] isolated from human Jurkat E6.1 cells incubated for 1 hr by scintillation-proximity assay based competitive solid-phase binding assay
# Assay type: tissue-based
measuredAttribute: IC50 (nM)

molecule: Nc1ccc(CNC(=O)N2C(=O)C[C@H]2C(=O)O)cc1.O=C(O)C(F)(F)F
readoutUnit: nM
recordedMeasurement: 7.6
//
molecule: Cc1ccccc1NC(=O)N1C(=O)CC1CC(=O)NCCC(=O)O (stereo not drawn)
readoutUnit: nM
recordedMeasurement: 12.4
//
molecule: Cc1ccccc1NC(=O)N1C(=O)CC1CC(=O)O (stereo not drawn)
readoutUnit: nM
recordedMeasurement: 9.8
